The origin of these recorded values is the supplement of paper PMC11061612.

# System: Caov-3 (Ovarian Carcinoma);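 further: after 72 h of two-drug dosing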
# procedure summary: Bliss excess, mean over the matrix (fraction); higher = more synergy
property measured: Bliss excess

compound="Cc1c2c(nn1C)CSCc1cc(n(C)n1)CSc1cc(c3ccccc3c1)OCCCc1c(C(=O)O)n(C)c3c-2c(Cl)ccc13 [AZD5991] + C[C@@H]1COCCN1C2=NC(=NC(=C2)C3(CC3)[S@](=N)(=O)C)C4=C5C=CNC5=NC=C4 [AZD6738] (first compound max 1 µM, 7x7, partner max 10 µM)" result=0.0293
compound="Cc1c2c(nn1C)CSCc1cc(n(C)n1)CSc1cc(c3ccccc3c1)OCCCc1c(C(=O)O)n(C)c3c-2c(Cl)ccc13 [AZD5991] + Cc1cc2ncnn2cc1Nc1ncc2c(n1)n(C1CCOCC1)c(=O)n2C [AZD7648] (first compound max 1 µM, 7x7, partner max 10 µM)" result=-0.0436
compound="Cc1c2c(nn1C)CSCc1cc(n(C)n1)CSc1cc(c3ccccc3c1)OCCCc1c(C(=O)O)n(C)c3c-2c(Cl)ccc13 [AZD5991] + CN(C)CCCOc1ccc(-c2ccc3ncc4c(c3c2)n(C2CCOCC2)c(=O)n4C)cn1 [AZD0156] (first compound max 1 µM, 7x7, partner max 1 µM)" result=0.0036
compound="CCc1c2c(nc3ccc(O)cc13)-c1cc3c(c(=O)n1C2)COC(=O)[C@]3(O)CC [SN-38] + CN(C)CCCOc1ccc(-c2ccc3ncc4c(c3c2)n(C2CCOCC2)c(=O)n4C)cn1 [AZD0156] (first compound max 0.3 µM, 7x7, partner max 1 µM)" result=0.0175
compound="COc1cccc(OCCCN)c1-c1cc(Nc2cnc(C#N)cn2)n[nH]1 [Prexasertib] + C[C@@H]1COCCN1C2=NC(=NC(=C2)C3(CC3)[S@](=N)(=O)C)C4=C5C=CNC5=NC=C4 [AZD6738] (first compound max 1 µM, 7x7, partner max 10 µM)" result=-0.0647
compound="Cc1c2c(nn1C)CSCc1cc(n(C)n1)CSc1cc(c3ccccc3c1)OCCCc1c(C(=O)O)n(C)c3c-2c(Cl)ccc13 [AZD5991] + C1CN(CCC1(C(=O)N[C@@H](CCO)C2=CC=C(C=C2)Cl)N)C3=NC=NC4=C3C=CN4 [Capivasertib] (first compound max 1 µM, 7x7, partner max 3 µM)" result=-0.01
compound="CCc1c2c(nc3ccc(O)cc13)-c1cc3c(c(=O)n1C2)COC(=O)[C@]3(O)CC [SN-38] + O=C(c1cc(Cc2n[nH]c(=O)c3ccccc23)ccc1F)N1CCN(C(=O)C2CC2)CC1 [Olaparib] (first compound max 0.3 µM, 7x7, partner max 10 µM)" result=0.0886
compound="CC1(C)CCC(CN2CCN(c3ccc(C(=O)NS(=O)(=O)c4ccc(NCC5CCOCC5)c([N+](=O)[O-])c4)c(Oc4cnc5[nH]ccc5c4)c3)CC2)=C(c2ccc(Cl)cc2)C1 [Venetoclax] + Cc1cc2ncnn2cc1Nc1ncc2c(n1)n(C1CCOCC1)c(=O)n2C [AZD7648] (first compound max 1 µM, 7x7, partner max 10 µM)" result=-0.159
compound="CC1(C)CCC(CN2CCN(c3ccc(C(=O)NS(=O)(=O)c4ccc(NCC5CCOCC5)c([N+](=O)[O-])c4)c(Oc4cnc5[nH]ccc5c4)c3)CC2)=C(c2ccc(Cl)cc2)C1 [Venetoclax] + CCN(CCO)CCCOc1ccc2c(Nc3cc(CC(=O)Nc4cccc(F)c4)[nH]n3)ncnc2c1 [AZD2811] (first compound max 1 µM, 7x7, partner max 1 µM)" result=-0.0544
compound="COc1cc2c(cc1OCCCCCOc1cc3c(cc1OC)C(=O)N1C=C(C)C[C@H]1C=N3)N=C[C@@H]1CC(C)=CN1C2=O [SG3199] + O=C(c1cc(Cc2n[nH]c(=O)c3ccccc23)ccc1F)N1CCN(C(=O)C2CC2)CC1 [Olaparib] (first compound max 0.001 µM, 7x7, partner max 10 µM)" result=-0.0475
compound="Cc1c2c(nn1C)CSCc1cc(n(C)n1)CSc1cc(c3ccccc3c1)OCCCc1c(C(=O)O)n(C)c3c-2c(Cl)ccc13 [AZD5991] + C=CCn1c(=O)c2cnc(Nc3ccc(N4CCN(C)CC4)cc3)nc2n1-c1cccc(C(C)(C)O)n1 [AZD1775] (first compound max 1 µM, partner max 1 µM)" result=-0.0274
compound="CN(CCO)CC[C@H](CSc1ccccc1)Nc1ccc(S(=O)(=O)NC(=O)c2ccc(N3CCC([C@@H](O)c4ccccc4-c4ccc(Cl)cc4)CC3)cc2)cc1S(=O)(=O)C(F)(F)F [AZD4320] + Cc1cc2ncnn2cc1Nc1ncc2c(n1)n(C1CCOCC1)c(=O)n2C [AZD7648] (first compound max 1 µM, 7x7, partner max 10 µM)" result=-0.0199
compound="Cc1c2c(nn1C)CSCc1cc(n(C)n1)CSc1cc(c3ccccc3c1)OCCCc1c(C(=O)O)n(C)c3c-2c(Cl)ccc13 [AZD5991] + CCN(CCO)CCCOc1ccc2c(Nc3cc(CC(=O)Nc4cccc(F)c4)[nH]n3)ncnc2c1 [AZD2811] (first compound max 1 µM, 7x7, partner max 1 µM)" result=0.0236
compound="CCN(CCO)CCCOc1ccc2c(Nc3cc(CC(=O)Nc4cccc(F)c4)[nH]n3)ncnc2c1 [AZD2811] + O=C(c1cc(Cc2n[nH]c(=O)c3ccccc23)ccc1F)N1CCN(C(=O)C2CC2)CC1 [Olaparib] (first compound max 1 µM, 7x7, partner max 10 µM)" result=-0.0444
compound="Cc1cc2ncnn2cc1Nc1ncc2c(n1)n(C1CCOCC1)c(=O)n2C [AZD7648] + CCN(CCO)CCCOc1ccc2c(Nc3cc(CC(=O)Nc4cccc(F)c4)[nH]n3)ncnc2c1 [AZD2811] (first compound max 10 µM, 7x7, partner max 1 µM)" result=-0.0523
